- TARGET SYSTEM: acetylcholine receptor
- EXPERIMENT DESCRIPTION: SPR, receptor immobilized, peptide 10 uM
Short version: Binding affinity (RU) at least 100 RU is yes (1), less is no (0).

Below, 3 binders whose answers are already recorded.
>>> class("KICGRK [6mer-2-815]")
"no (0)"
>>> class("KRGVRR [6mer-1-151]")
"yes (1)"
>>> class("RKQYYR [6mer-1-173]")
"yes (1)"

Form field: Binding affinity (RU) at least 100 RU? Entry: KRRFLR [6mer-1-139]
yes (1)

Form field: Binding affinity (RU) at least 100 RU? Entry: KPEDR [5mer-1050]
no (0)

Form field: Binding affinity (RU) at least 100 RU? Entry: RPNNKK [6mer-2-820]
no (0)

Form field: Binding affinity (RU) at least 100 RU? Entry: RYSMK [5mer-1094]
no (0)

Form field: Binding affinity (RU) at least 100 RU? Entry: RNCGKR [6mer-2-804]
no (0)
